Experiment: Plasma concentration of BBR in KK-Ay mice treated or untreated with antibiotics
Type: in vivo
Details: KK-Ay, mouse, plasma, oral, 200 mg/kg, day 14, mice treated with antibiotics (Group 1), BBR 200 mg/kg qd
recorded_metric: Cmax at 14 day (ng/mL)

INSERT INTO assay_data (compound, unit_symbol, quantitative_result) VALUES
  ('COc1ccc2cc3[n+](cc2c1OC)CCc1cc2c(cc1-3)OCO2', 'ng/mL', 28.3);

====

Assay: Plasma pharmacokinetics after oral dhBBR or BBR in rats
Format: in vivo, SD rats
Conditions: SD, rat, plasma, po, 200 mg/kg, oral dhBBR 200 mg/kg; Fig. 3b curve 2; read-out: AUC(0-t) of dhBBR in plasma
recorded_metric: AUC(0-t) (ng·h/mL)

INSERT INTO results (compound, recorded_metric, quantitative_result) VALUES
  ('COc1ccc2c(c1OC)CN1CCc3cc4c(cc3C1=C2)OCO4 [dhBBR, dihydroberberine]', 'AUC(0-t)', 48.9);

====

Assay: Absorption of BBR and dhBBR in Caco-2 cells
Format: in vitro ADME
Conditions: human, pH 7.4; Caco-2, 5 μM, 30 min
Consider the following compounds and their measured Papp A→B at 30 min, 5 μM readings.
recorded_metric: Papp A→B at 30 min, 5 μM

INSERT INTO assay_data (compound, result) VALUES
  ('COc1ccc2c(c1OC)CN1CCc3cc4c(cc3C1=C2)OCO4 [dhBBR, dihydroberberine]', '4.51 ×10⁻⁶ cm/s'),
  ('COc1ccc2cc3[n+](cc2c1OC)CCc1cc2c(cc1-3)OCO2', '0.38 ×10⁻⁶ cm/s');

====

Test: Plasma pharmacokinetics after oral dhBBR or BBR in rats
Assay type: in vivo, SD rats
Conditions: SD, rat, plasma, po, 200 mg/kg, oral dhBBR 200 mg/kg; read-out: Cmax of BBR in blood
recorded_metric: Cmax (ng/mL)

INSERT INTO results (compound, recorded_metric, quantitative_result) VALUES
  ('COc1ccc2cc3[n+](cc2c1OC)CCc1cc2c(cc1-3)OCO2 [BBR, berberine]', 'Cmax', 52.5);

====

Experiment: Plasma pharmacokinetics after oral dhBBR or BBR in rats
Assay type: in vivo, SD rats
Settings: SD, rat, plasma, po, 200 mg/kg, oral dhBBR 200 mg/kg; Fig. 3b curve 2; read-out: Cmax of dhBBR in plasma
recorded_metric: Cmax (ng/mL)

INSERT INTO assay_data (molecule, recorded_metric, quantitative_result) VALUES
  ('COc1ccc2c(c1OC)CN1CCc3cc4c(cc3C1=C2)OCO4 [dhBBR, dihydroberberine]', 'Cmax', 10.2);

====

Assay: Plasma BBR in pseudo germ-free versus conventional rats after oral BBR
Assay type: in vivo
Details: male, SD, rat, 200 mg/kg, conventional SD rat, oral BBR 200 mg/kg
recorded_metric: AUC(0-t) (ng·h/mL)

INSERT INTO assay_data (compound, recorded_metric, quantitative_result) VALUES
  ('COc1ccc2cc3[n+](cc2c1OC)CCc1cc2c(cc1-3)OCO2', 'AUC(0-t)', 70.9);

====

Assay: Plasma pharmacokinetics after oral dhBBR or BBR in rats
Type: in vivo, SD rats
Conditions: SD, rat, plasma, po, 200 mg/kg, oral BBR 200 mg/kg; Fig. 3c curve 2; read-out: Cmax of BBR in plasma
recorded_metric: Cmax (ng/mL)

INSERT INTO measurements (compound, quantitative_result) VALUES
  ('COc1ccc2cc3[n+](cc2c1OC)CCc1cc2c(cc1-3)OCO2 [BBR, berberine]', 16.1);
